target: Fibroblast growth factor 10 (Homo sapiens) (UniProt O15520); experiment: FGF10 binders on small-molecule microarrays, primary screen, biochemical, small-molecule microarray, 635 nm fluorescence (AID 1102); details: FGF10 binding, fluorescence 635 nm, higher = more signal
Sequence (O15520 whole entry, looked up): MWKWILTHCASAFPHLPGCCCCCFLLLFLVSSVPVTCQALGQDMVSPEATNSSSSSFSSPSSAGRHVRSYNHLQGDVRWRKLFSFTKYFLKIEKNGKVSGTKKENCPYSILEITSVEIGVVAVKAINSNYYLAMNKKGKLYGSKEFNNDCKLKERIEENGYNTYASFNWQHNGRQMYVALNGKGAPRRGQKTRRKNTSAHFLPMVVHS
Each entry below carries its reported composite z-score.
MEASUREMENT_KIND: composite z-score

1. CO[C@H]1O[C@H](CO)[C@@H](OC(=O)Nc2ccc3c(c2)OCO3)[C@H](OC(=O)c2cc3ccccc3[nH]2)[C@H]1OC(=O)c1cc2ccccc2[nH]1
0.247
2. COc1ccc(NC(=O)O[C@H]2[C@H](OC(=O)Nc3ccccc3)[C@H](OC(=O)Nc3ccccc3)[C@@H](OC)O[C@@H]2CO)cc1
1.27
3. COC(=O)c1c2oc(c1C(=O)OC)C(=O)N(C)Cc1cn(nn1)C[C@H](Cc1ccccc1)NC(=O)N[C@H](CO)CC2
-0.591
